Quick list: IC50 per entry.
Molecular target: UniProt:P32246
Sequence (P32246 1-355): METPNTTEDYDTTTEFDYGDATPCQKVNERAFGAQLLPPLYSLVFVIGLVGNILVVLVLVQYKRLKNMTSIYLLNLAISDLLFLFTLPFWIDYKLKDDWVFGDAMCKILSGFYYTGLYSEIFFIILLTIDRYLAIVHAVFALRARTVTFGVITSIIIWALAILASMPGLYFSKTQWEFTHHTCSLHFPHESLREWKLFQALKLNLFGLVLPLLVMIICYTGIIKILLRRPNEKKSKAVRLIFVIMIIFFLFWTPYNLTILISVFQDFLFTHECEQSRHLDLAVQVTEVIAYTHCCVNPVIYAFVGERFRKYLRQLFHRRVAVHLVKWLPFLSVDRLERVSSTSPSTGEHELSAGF
Assay: Chemotaxis (migration) assay
Conditions: THP-1 or monocyte cells, CCR1 chemokine ligand (MIP-1α, CCL15/Leukotactin), 1-2 hours at 37° C.

## Task Give me measured IC50, please, for this compound: Cc1c(Cl)c(C(F)(F)F)nn1C(CCCCO)C(=O)Nc1cnn(-c2ccc(F)cc2)c1C(C)C (stereo not drawn) [1.014]
## Result 100 to 10000 nM

## Task Give me measured IC50, please, for this compound: Cc1c(Cl)c(C(F)(F)F)nn1CC(=O)Nc1cnn(-c2ccc(F)cc2)c1 [1.027]
## Result 100 to 10000 nM

## Task In one line, give reported IC50 of the entry Cc1nc(C(F)(F)F)cn1C(C)C(=O)Nc1cnn(-c2ccc(Cl)cc2)c1C1CC1 (stereo not drawn) [1.002] .
## Result 100 to 10000 nM

## Task For Cc1nc(C(F)(F)F)nn1C(C)C(=O)Nc1cnn(-c2ccc(Cl)cc2)c1C(C)C (stereo not drawn) [1.010] , write its IC50.
## Result ≤ 100 nM

## Task Assign IC50 to the following record: CCc1c(NC(=O)Cn2nc(C(F)(F)F)c(Cl)c2C)cnn1-c1ccc(F)cc1 [1.023]
## Result 100 to 10000 nM

## Task For the compound Cc1nc(C(F)(F)F)cn1[C@@H](C)C(=O)Nc1cnn(-c2ccc(Cl)cc2)c1C1CCC1 [1.029] , give its measured IC50 value.
## Result ≤ 100 nM

---

Target: CCR1 (Homo sapiens, UniProt P32246)
Sequence (P32246 1-355): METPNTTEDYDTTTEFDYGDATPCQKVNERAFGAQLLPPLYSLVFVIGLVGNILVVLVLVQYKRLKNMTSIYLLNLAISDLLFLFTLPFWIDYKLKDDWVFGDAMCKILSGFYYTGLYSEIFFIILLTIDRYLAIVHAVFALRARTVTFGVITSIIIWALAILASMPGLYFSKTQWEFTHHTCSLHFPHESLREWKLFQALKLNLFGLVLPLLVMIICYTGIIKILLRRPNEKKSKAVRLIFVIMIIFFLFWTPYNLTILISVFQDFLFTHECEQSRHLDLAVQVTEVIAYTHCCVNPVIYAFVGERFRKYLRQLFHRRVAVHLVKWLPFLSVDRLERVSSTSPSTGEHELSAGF
Assay: Chemotaxis (migration) assay
Conditions: THP-1 or monocyte cells, CCR1 chemokine ligand (MIP-1α, CCL15/Leukotactin), 1-2 hours at 37° C.
pIC50: −log10 of the molar value.
measured quantity: pIC50

Record excerpt, results attached:
Cc1c(Cl)c(C(F)(F)F)nn1C(C)C(=O)Nc1cnn(-c2ccc(F)cc2)c1C(C)C (centres unmarked) : ≥ 7.00
Cc1nc(C(F)(F)F)cn1C(C)C(=O)Nc1cnn(-c2ccc(F)cc2)c1C(C)C (centres unmarked) [1.009] : ≥ 7.00
CCC(C(=O)Nc1cnn(-c2ccc(F)cc2)c1C(C)C)n1nc(C(F)(F)F)c(Cl)c1C (centres unmarked) : ≥ 7.00
Cc1c(Cl)c(C(F)(F)F)nn1CC(=O)Nc1cnn(-c2ccc(F)cc2)c1-c1ccccc1 : 5.00 to 7.00
Cc1nc(C(F)(F)F)cn1C(C)C(=O)Nc1cnc(-c2ccc(Cl)cc2)n1C(C)C (centres unmarked) : 5.00 to 7.00
Cc1c(NC(=O)Cn2nc(C(F)(F)F)c(Cl)c2C)ncn1-c1ccc(F)cc1 : 5.00 to 7.00
Cc1nc(C(F)(F)F)cn1C(C)C(=O)Nc1cnn(-c2ccc(Cl)cc2)c1C(C)C (centres unmarked) [1.011] : ≥ 7.00

We next turn to a different compound, shown below.
## Task Answer briefly: pIC50 recorded on CCR1 (Homo sapiens, UniProt P32246) for Cc1nc(C(F)(F)F)cn1C(C)C(=O)Nc1cnn(-c2ccc(F)cc2)c1Cl (centres unmarked)
## Result 5.00 to 7.00
